# study_system: 3D7 strain of P. falciparum
# experimental_details: High throughput quantitative parasite growth assay, luciferase expressing parasites
# Type: cell-based, Plasmodium falciparum
# recorded_conditions: luciferase readout, approximately 60 hours growth
For each entry below, report its pIC50 value.
Answers are plain numbers, as −log10 of the molar value.

>>> observed_value("NCCCc1ccc(-c2ccc3sc4ccc(-c5ccc(CCCN)cc5)cc4c3c2)cc1 [Compound 130]")
5.59
>>> observed_value("NCc1cccc(-c2ccc3sc4ccc(-c5cccc(CN)c5)cc4c3c2)c1 [Compound 131]")
6.63

Summary for this compound, NCCCc1cccc(-c2ccc3c(c2)-c2cc(-c4cccc(CCCN)c4)ccc2S3(=O)=O)c1 [Compound 141] : pIC50 is 5.87

Recorded values, source patent US8796275B2.
